assay: Solubility of Form A at 37° C. under conditions that simulate the human GI tract (HPLC of filtrate); format: physicochemical; settings: aqueous buffer, thermodynamic from solid; pH 4.5 (acetate buffer); 37° C. overnight
readout-name: solubility (mg/mL)

- C[N+]1(CC2CC2)CC[C@]23c4c5ccc(O)c4O[C@H]2C(=O)CC[C@@]3(O)[C@H]1C5.[Br-] (stereo partly drawn) [Form A, (R)-N-methylnaltrexone bromide]: 100

---

assay: Equilibrium solubility of Form A at room temperature in solvents and aqueous buffers; type: physicochemical; details: thermodynamic from solid, Bacteriostatic water (0.9% benzyl alcohol), stirred overnight, read-out: Solubility at R.T.
readout-name: solubility (mg/mL)

* C[N+]1(CC2CC2)CC[C@]23c4c5ccc(O)c4O[C@H]2C(=O)CC[C@@]3(O)[C@H]1C5.[Br-] (stereo partly drawn) [Form A, (R)-N-methylnaltrexone bromide] | 86.5

---

experiment: Equilibrium solubility of Form A at room temperature in solvents and aqueous buffers; type: physicochemical; settings: aqueous buffer, thermodynamic from solid, pH 4.2 (glycine HCl buffer), read-out: Solubility at R.T.
readout-name: solubility (mg/mL)

• C[N+]1(CC2CC2)CC[C@]23c4c5ccc(O)c4O[C@H]2C(=O)CC[C@@]3(O)[C@H]1C5.[Br-] (stereo partly drawn) [Form A, (R)-N-methylnaltrexone bromide] = 73.8

---

Assay: Equilibrium solubility of Form A at room temperature in solvents and aqueous buffers
Format: physicochemical
Details: organic solvent or mixture, thermodynamic from solid, Ethanol, stirred overnight, read-out: Solubility at R.T.
Description: In each case, the equilibrium solubility of Form A at room temperature was measured by placing the compound in excess into different solvents and stirring overnight at ambient room temperature, protected from light. […]
readout-name: solubility (µg/mL)

- C[N+]1(CC2CC2)CC[C@]23c4c5ccc(O)c4O[C@H]2C(=O)CC[C@@]3(O)[C@H]1C5.[Br-] (stereo partly drawn) [Form A, (R)-N-methylnaltrexone bromide]: 6100

---

test: Equilibrium solubility of Form A at room temperature in solvents and aqueous buffers; assay type: physicochemical; details: simulated gastric fluid, thermodynamic from solid, 0.1N HCl, read-out: Solubility at R.T.
readout-name: solubility (mg/mL)

• C[N+]1(CC2CC2)CC[C@]23c4c5ccc(O)c4O[C@H]2C(=O)CC[C@@]3(O)[C@H]1C5.[Br-] (stereo partly drawn) [Form A, (R)-N-methylnaltrexone bromide] = 76.6

---

test: Equilibrium solubility of Form A at room temperature in solvents and aqueous buffers; format: physicochemical; settings: organic solvent or mixture, thermodynamic from solid, Methanol, stirred overnight, read-out: Solubility at R.T.
readout-name: solubility (µg/mL)

* C[N+]1(CC2CC2)CC[C@]23c4c5ccc(O)c4O[C@H]2C(=O)CC[C@@]3(O)[C@H]1C5.[Br-] (stereo partly drawn) [Form A, (R)-N-methylnaltrexone bromide] | 2500

---

assay: Solubility of Form A at 37° C. under conditions that simulate the human GI tract (HPLC of filtrate); format: physicochemical; conditions: aqueous buffer, thermodynamic from solid; pH 6.8 (phosphate buffer); 37° C. overnight
readout-name: solubility (mg/mL)

• C[N+]1(CC2CC2)CC[C@]23c4c5ccc(O)c4O[C@H]2C(=O)CC[C@@]3(O)[C@H]1C5.[Br-] (stereo partly drawn) [Form A, (R)-N-methylnaltrexone bromide] = 101
